- Test system: K4 kissing-loop RNA reporter;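 further: bound reporter read as fluorescence of individual clusters on recovered sequencing chips by microscopy, with normalized cluster intensities fitted with a binding model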
- Test Details: apparent KD of K4 kissing-loop reporter; higher = weaker reporter binding
- Condition Summary: Eterna round: R107; input ligand: FMN 200 uM

Biosequence	Experimental System	apparent KD of K4 kissing-loop reporter, nM
CGCGCGUGAGGACUUGCCCUUCAUGGAGAUACCAGCCAGUAUGCGGGCCCUUGGCAGCUCGAGUGAUGUUCGAGUUUAAGGCAAA [Riesla]	K4 kissing-loop RNA reporter	130
UGACUGGAUGGAAGGAGCGCUAAACUCCUAGUGAUGUUAGGGACAUGAGGCAAAGCCUUGAAGCAGGUAGGUCGCCAUCUAGUCU [FiskerMod 27 - Jieux - Same State - Arginine B]	K4 kissing-loop RNA reporter	233
CUAUUUCGCGUGGAUACCAGCGGUCGUAAAAUGUCAGUGAUGUUGAAGAGGAAAAGAGCUCGCCCUUGGCAGCCAUUCCGCACUA [theeternabot_sameState_KL_Theo_B_34]	K4 kissing-loop RNA reporter	591
CGGAUGUAGUGAUGUUAUAUUAGAUGUAGACGAGGACCGGUACGGCCGCCACUCGUGACGGCUGCUAGCGCGUUGCGAGGUUUGC [ExTryptoA.Cn]	K4 kissing-loop RNA reporter	716
GGGUCAUGGAACGGAUAAGUGAUGUUUACCCGAGGACCGGUACGGCCGCCACUCGGUCGUUAUUUCCGACGUGCUGGUAAGACUA [theeternabot_exclusion_KL_Trp_A_10]	K4 kissing-loop RNA reporter	336
UGAUAGGACAGAAGGAGCGGUAGUGAUGUUACCAAAAGUAUAAGGUGUCAAAAGACACCCUGCCAGGUAGGUCGCUGUCCUAUCU	K4 kissing-loop RNA reporter	157
AGACUACCACACUGUCAAUAGACAGUGUACUAGGAUAUGCUGAUAAGCAGAAGGAGUGAUGUUCCUAGGUAGUCAAUAAAAUAAU [FmnAX 13 U28]	K4 kissing-loop RNA reporter	439
UCCUAGGCUCGAAAGAGCCUAGGAUUUACUCAGGAUAUCCGGAAACGGAGAAGGGAGUGACUAGUGAUGUUAGGGACUCCCUAAA	K4 kissing-loop RNA reporter	144
AGAGUGAUGUUUUUUUGAAGUGAGUAAUGUCGAGGACCGGUACGGCCGCCACUCGAGUGAUGUUAGUGAUGUUGAUGUAGUGAUG [?lmullin]	K4 kissing-loop RNA reporter	138
GCGGCGGGCCAAGGAUAUAUAUUGGAGUGAUGUUGUUCAUUUAUUUGAGCUAGUGAUGUUGGUCAGAUAGAAGGUGGCCCGCCGC [whbob_Ex_FMNB__2th216]	K4 kissing-loop RNA reporter	76.3
UGUGUUUACCUGACUCAGUGAUGUUGAGAAGGAGCGUGAGAAGGCACAGGUAGGUCGCUCAACCUAAAUUCAGGUGAGCACUAAA	K4 kissing-loop RNA reporter	134
GUAUUUCCCUCGGAUACCAGUCAUCAUGAGUAUAGUGAUGUUGUACGUCCGGAUGAUUUUGACCCUUGGCAGCCGUCUCCUUGAA [theeternabot_sameState_KL_Theo_B_49]	K4 kissing-loop RNA reporter	515

---

- System: MS2 coat protein
- Test Details: apparent KD of MS2 coat protein; higher = weaker reporter binding
- Condition Summary: Eterna round: R107; input ligand: tryptophan 2.4 mM
Listed here are sequences together with their documented apparent KD of MS2 coat protein.
Quantity: apparent KD of MS2 coat protein (nM)

Biosequence	Recorded Result
ACCAGGGUCUGAAGGAGCGCGAUUACAUGAGGAUCACCCAUGUGAAAUGGUAGAUGAUACUCGCAGGUAGGUCGCAGUACUUGGA [Same State Arginine B GF 14]	215
UAUUCUGACACAGAUACCAGUCAAUUCCGUGGCAAGUGCUACAUGAGGAUCACCCAUGUCGACCCUUGGCAGCUGAAGAGAUACA [theeternabot_exclusion_MS2_Theo_B_50]	11.2
UGGCAAGAGGGAAGGAGCGUCAGCUGAGUCACAUGAGGAUCACCCAUGUAGCACAUGGUGUGACAGGUAGGUCGCCCUCUGCCGU [SS-ArgB11]	23.7
AAGGUGAUCCGUGAUACCAGCUCAACAUGAGGAUCACCCAUGUAACGGACGAAAGUCCGGAGCCCUUGGCAGCACGGUAAUAAUA [(M)'-(Theo1)-(Ms2)-(Theo2)-(M'')_Design2b]	11.6
GUCAGUAGAACAGAUACCAGUCAAAGGCUGUGAUCUCAUAACAUGAGGAUCACCCAUGUUGACCCUUGGCAGCUGUGGGCGAGGG [#20 Exclusion-TheophyllineB]	43.7
GUCCUAGCGAUCGCUCGCUAGGACGCGGAUACCAGCGAGGUCCAUCGCCCUUGGCAGCCGAACAUGAGGAUCACCCAUGUCGGUA [#1 Same State - Theophylline A Attempt #18 (HarryS)]	10.2
GCACGAGUAAGACCUGACUUCAACAAUGAUACCAGACUAGUAAACGUCCCUUGGCAGCAUCAGACAUGAGGAUCACCCAUGUGGC [theeternabot_exclusion_MS2_Theo_A_44]	34.3
CCCAGUCAUAACAAAGGAAAUAUACUCGAAGGAGCGUCAUAGUAGGCAGGUAGGUCGCGAGACAUGAGGAUCACCCAUGUAGAGA [swwvmullin]	57.8
GUCCACAGCCGAAGGAGCGCUAGAAGAUGACAUGAGGAUCACCCAUGUGUGUGAUGUGGCUAGCAGGUAGGUCGCGGAGUGGAUU [Exclusion - Arginine B (Freestyle 14)]	19.6
UGUAUGGACUGAAGGAGCGGUAGAUAGCUUGAGGAUCACCCAAGUAAUAAGGCGAAAGCCUACCAGGUAGGUCGCAGUCCAUACU	27.9
GGAUAGGACACGGCCGCCACUAGCUAGGAUACUAGCAACAUUUCCUCACUUGAGGAACACCCAAGUAGGACCGGGUGUCCUAUCG	740
